Hello, the source for this data is the supplement of paper PMC9112550, in case you need it.

System: Escherichia coli TOP10;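 note: peptides expressed intracellularly from a pBAD plasmid library in pooled LB shake-flask culture, induced with 0.3% L-arabinose, DNA abundance read by NGS, three biological replicates, DESeq2 with apeglm shrinkage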
Assay: shrunken log2 fold change of peptide-encoding DNA abundance (4.5 h post-induction vs induction); higher = less antimicrobial activity (less host growth inhibition)
Details: time post-induction: 4.5 h; library: site-saturation at positions 5, 18, 19, 20
Lab note: anything with shrunken log2 fold change at or over -0.06 counts as Condition met; the rest go in Condition not met.

Q. Is shrunken log2 fold change at least -0.06? Consider RRIRARPPRLPRPRPRPLIFPRP
A. Condition met

Q. Textbook exercise: given the entry RRIRLRPPRLPRPRPRPAVLPRP , state whether its shrunken log2 fold change is greater than or equal to -0.06.
A. Condition not met

Q. Reported shrunken log2 fold change reaches at least -0.06 for RRIRPRPPRLPRPRPRPHQYPRP ?
A. Condition not met

Q. Given RRIRDRPPRLPRPRPRPAGTPRP , state whether its shrunken log2 fold change is at least -0.06.
A. Condition met

Q. // inclusive: shrunken log2 fold change at least -0.06? input: RRIRVRPPRLPRPRPRPDAQPRP
A. Condition not met

Q. I'd appreciate it if you could say whether RRIRDRPPRLPRPRPRPNEEPRP has shrunken log2 fold change at least equal to -0.06.
A. Condition met

Q. Quick check, shrunken log2 fold change >= -0.06? RRIRERPPRLPRPRPRPSNCPRP
A. Condition not met
